In this section, each of the molecules is paired with its reported CC50.
# Assay Method Text: Cytotoxicity against human C8166 cells by XTT-formazan method
# Type: cell-based
# Test Conditions: read-out: TC50 (the source's name)
Give just the number in µg/mL; leave the unit off.

CC(=O)O[C@H]1[C@H](O)[C@@H](O)[C@H](Oc2ccc(C(=O)/C=C/c3ccc(O)c(O)c3)c(O)c2O)O[C@@H]1COC(=O)/C=C/c1ccc(O)cc1 | 100

# input for lookup
GET /value?item= "O=C(/C=C/c1ccc(O)cc1)OC[C@H]1O[C@@H](Oc2ccc(C(=O)/C=C/c3ccc(O)cc3)c(O)c2O)[C@H](O)[C@@H](O)[C@@H]1O" &field=CC50 returns 250
